Here, each record is paired with measured thermal shift dTm data.
# experimental.system: Sulfhydryl oxidase 1 (Homo sapiens) (UniProt O00391)
# Sequence (O00391 whole entry, looked up): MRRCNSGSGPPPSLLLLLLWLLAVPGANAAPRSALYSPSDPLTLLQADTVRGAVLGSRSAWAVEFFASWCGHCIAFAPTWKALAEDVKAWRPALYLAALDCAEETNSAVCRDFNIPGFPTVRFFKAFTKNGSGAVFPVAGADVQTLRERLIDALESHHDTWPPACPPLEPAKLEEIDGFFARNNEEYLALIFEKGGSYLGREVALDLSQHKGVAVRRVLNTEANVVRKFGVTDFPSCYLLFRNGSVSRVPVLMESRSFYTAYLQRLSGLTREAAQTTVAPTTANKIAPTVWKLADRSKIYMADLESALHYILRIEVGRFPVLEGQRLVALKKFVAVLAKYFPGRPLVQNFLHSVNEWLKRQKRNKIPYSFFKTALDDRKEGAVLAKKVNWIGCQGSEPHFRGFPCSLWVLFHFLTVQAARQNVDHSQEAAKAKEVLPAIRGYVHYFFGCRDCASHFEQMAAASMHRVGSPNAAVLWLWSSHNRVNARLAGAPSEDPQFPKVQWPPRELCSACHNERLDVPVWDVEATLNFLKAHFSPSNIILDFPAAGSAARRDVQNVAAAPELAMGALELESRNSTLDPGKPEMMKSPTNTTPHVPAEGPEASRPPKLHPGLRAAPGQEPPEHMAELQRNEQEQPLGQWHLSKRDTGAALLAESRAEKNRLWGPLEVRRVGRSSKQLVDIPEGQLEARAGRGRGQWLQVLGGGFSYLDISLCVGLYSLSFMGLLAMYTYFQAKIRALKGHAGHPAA
# assay.name: QSOX1 binders by thermal stabilization, confirmation, QSOX1 inhibitor project, biophysical, protein thermal shift, single concentration (AID 1347422);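 also: dTm is compound Tm minus mean Tm of DMSO-only wells on that plate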
# run.parameters: recombinant hQSOX1 thermal shift, Sypro Orange, at 25 µM, stronger effect = higher value
The full ranking holds about 1,000 compounds; the median of “thermal shift dTm” is about 0.19, and the highest 2% start at about 1.7. Only a selection was taken, and the highest values are over-represented in it overall. The source made the active and inactive calls.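 The calls were made as follows: active = mean rise in melting temperature of at least 1 degC over same-plate control wells; inactive = below that, where a call was filed.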

- compound: "CCc1ccc(C(=O)Nc2cccc(NC(=O)c3ccco3)c2)cc1"
  experimental.system: "Sulfhydryl oxidase 1 (Homo sapiens) (UniProt O00391)"
  thermal shift dTm: "2.18 °C (active)"
- compound: "CC(NS(=O)(=O)c1ccc(Cl)cc1)C1C2CC3CC(C2)CC1C3 (stereo not drawn)"
  experimental.system: "Sulfhydryl oxidase 1 (Homo sapiens) (UniProt O00391)"
  thermal shift dTm: "0.05 °C"
- compound: "Cc1ccc(NC(=O)Nc2ccc(Br)cc2)nc1"
  experimental.system: "Sulfhydryl oxidase 1 (Homo sapiens) (UniProt O00391)"
  thermal shift dTm: "0.28 °C"
- compound: "COc1ccc(C(=O)Oc2ccccc2Cl)cc1Br"
  experimental.system: "Sulfhydryl oxidase 1 (Homo sapiens) (UniProt O00391)"
  thermal shift dTm: "0.06 °C"
- compound: "Cc1ccc2sc(-c3ccc(NC(=O)CCc4ccccc4)cc3)nc2c1"
  experimental.system: "Sulfhydryl oxidase 1 (Homo sapiens) (UniProt O00391)"
  thermal shift dTm: "0.4 °C"
- compound: "COc1ccc2[nH]cc(CCNC(=O)c3ccc(NC(C)=O)cc3)c2c1"
  experimental.system: "Sulfhydryl oxidase 1 (Homo sapiens) (UniProt O00391)"
  thermal shift dTm: "1 °C (active)"
- compound: "CCCc1cc(C(=O)Nc2ccc3[nH]ncc3c2)cs1"
  experimental.system: "Sulfhydryl oxidase 1 (Homo sapiens) (UniProt O00391)"
  thermal shift dTm: "2.61 °C (active)"
- compound: "O=C1OC(c2ccccc2)OC(=O)C1=Cc1ccc(-c2cccc(C(F)(F)F)c2)o1 (stereo not drawn)"
  experimental.system: "Sulfhydryl oxidase 1 (Homo sapiens) (UniProt O00391)"
  thermal shift dTm: "1.07 °C (active)"
- compound: "O=c1[nH]c(SCc2ccc(Cl)c(Cl)c2)nc2ccccc12"
  experimental.system: "Sulfhydryl oxidase 1 (Homo sapiens) (UniProt O00391)"
  thermal shift dTm: "0.11 °C"
- compound: "CCc1c(C(=O)Nc2ccc3[nH]ncc3c2)csc1C"
  experimental.system: "Sulfhydryl oxidase 1 (Homo sapiens) (UniProt O00391)"
  thermal shift dTm: "0.29 °C"
- compound: "COc1cccc(NC(=O)Nc2ccc(Cc3ccncc3)cc2)c1"
  experimental.system: "Sulfhydryl oxidase 1 (Homo sapiens) (UniProt O00391)"
  thermal shift dTm: "0.38 °C"
- compound: "COc1ccc(-c2nnc(Nc3ccc(O)cc3)c3ccccc23)cc1"
  experimental.system: "Sulfhydryl oxidase 1 (Homo sapiens) (UniProt O00391)"
  thermal shift dTm: "0.15 °C"
- compound: "c1ccc(COc2ccc(-c3noc(-c4ccccn4)n3)cc2)cc1"
  experimental.system: "Sulfhydryl oxidase 1 (Homo sapiens) (UniProt O00391)"
  thermal shift dTm: "0.01 °C"
- compound: "COc1ccc(CCC(=O)Nc2nc3ccc(S(C)(=O)=O)cc3s2)cc1"
  experimental.system: "Sulfhydryl oxidase 1 (Homo sapiens) (UniProt O00391)"
  thermal shift dTm: "0.35 °C"
- compound: "Cc1ccc(Nc2nc(C3(C)CC4(CC(C)OC4=O)C(=O)O3)cs2)cc1 (stereo not drawn)"
  experimental.system: "Sulfhydryl oxidase 1 (Homo sapiens) (UniProt O00391)"
  thermal shift dTm: "0.11 °C"
- compound: "CCCc1cc(=O)[nH]c(N2CCN(Cc3ccc4c(c3)OCO4)CC2)n1"
  experimental.system: "Sulfhydryl oxidase 1 (Homo sapiens) (UniProt O00391)"
  thermal shift dTm: "0.02 °C"
- compound: "Cc1ccc(-n2[nH]c(CSc3nnnn3-c3ccccc3)cc2=O)cc1"
  experimental.system: "Sulfhydryl oxidase 1 (Homo sapiens) (UniProt O00391)"
  thermal shift dTm: "0.43 °C"
- compound: "CC1CCc2c(sc3ncn(CC(=O)Nc4ccccc4F)c(=O)c23)C1 (stereo not drawn)"
  experimental.system: "Sulfhydryl oxidase 1 (Homo sapiens) (UniProt O00391)"
  thermal shift dTm: "0.26 °C"
- compound: "CC(=O)Oc1ccc(-c2csc(Nc3ccccc3F)n2)cc1"
  experimental.system: "Sulfhydryl oxidase 1 (Homo sapiens) (UniProt O00391)"
  thermal shift dTm: "0.35 °C"
- compound: "CC(=O)Nc1cccc(NC(=O)c2cccc(NC(=O)c3ccco3)c2)c1"
  experimental.system: "Sulfhydryl oxidase 1 (Homo sapiens) (UniProt O00391)"
  thermal shift dTm: "0.37 °C"
- compound: "O=C(Nc1cccc(NC(=O)c2ccco2)c1)c1cccc(F)c1"
  experimental.system: "Sulfhydryl oxidase 1 (Homo sapiens) (UniProt O00391)"
  thermal shift dTm: "1.39 °C (active)"
- compound: "O=C(Nc1cccc(-c2noc(CCc3ccccc3)n2)c1)c1cccs1"
  experimental.system: "Sulfhydryl oxidase 1 (Homo sapiens) (UniProt O00391)"
  thermal shift dTm: "0.1 °C"
- compound: "Cc1sc(NC(=O)C#Cc2ccccc2)c(C(N)=O)c1C"
  experimental.system: "Sulfhydryl oxidase 1 (Homo sapiens) (UniProt O00391)"
  thermal shift dTm: "0.33 °C"
